# System: SN12C
# PROCEDURE_DETAILS: NCI tumour cell line growth inhibition, 48 h
Activity calls are given as the source filed them. Cut-off read from the data, not from the text of the source: active = GI50 up to about 1.1 µM and inactive = higher.
# Lookup of reported GI50 keyed by entry
MEASURED_METRIC: GI50

> print(dat)
                                    compound             measured
 1  C#C[C@]1(O)CC[C@H]2[C@@H]3CCC4=C/C(=N\OCCN(CC)CC)CC[C@]4(C)[C@H]3CC[C@@]21C   9.12 µM (inactive)
 2   CC1=C[P+](c2ccccc2)(c2ccccc2)c2ccccc2O1   1.32 µM (inactive)
 3      Cc1cc(-c2cscn2)c(O)c([N+](=O)[O-])c1     45 µM (inactive)
 4  C#C[C@]1(O)CC[C@H]2[C@@H]3CCC4=C/C(=N/NC(=O)c5cccc6cc7ccccc7nc56)CC[C@@H]4[C@H]3CC[C@@]21CC   35.4 µM (inactive)
 5  CC1=CC[C@@]2(C)CC[C@](O)(C(C)C)C2C(OC(=O)c2ccccc2)C1 (stereo not given in full)   23.6 µM (inactive)
 6  CS/C(=N\C(=S)N(C)C)N(c1ccccc1)c1nc(N(C)C)s[s+]1   13.1 µM (inactive)
 7              C/C(=N\N=C(/S)N(C)C)c1cccnn1      1.1 µM (active)
 8  CCOC(=O)N1CCC(=C2c3ccc(Cl)cc3CCc3cccnc32)CC1   10.2 µM (inactive)
 9          CCOC(=O)c1c(Nc2ccccc2)sc2cccnc12   9.18 µM (inactive)
10  O=C(O)c1c2c(cc3c(=O)cc(-c4ccccc4)oc13)CCCC2  > 100 µM (inactive)

---

# Tested on: OVCAR-8
# PROCEDURE_DETAILS: NCI tumour cell line growth inhibition, 48 h
Where a name gives a salt, the structure may show the parent alone. The source made the active and inactive calls. No stated cut-off is given here; in the data, active = GI50 up to about 1.1 µM and inactive = higher. Starred links: 1 amine or outer side, 2 acyl side, 3 side chain; linkers in the order of their positions; H or OH if unused. Non-standard residues stand in square brackets, D forms with d. Residues, ends and D or L forms follow the SMILES beside them. ξ: configuration not given here. X24 = O=C(C(CC(O)CO)O[*:1])[*:2]; Ile(3ξ) = CCC(C)[C@H](N)C(=O)O; NMeV = CN[C@H](C(=O)O)C(C)C; NMeA = CN[C@@H](C)C(=O)O; βAla = NCCC(=O)O
Outcome codes: 1 (yes) (active), 0 (no) (inactive)

COMPOUND	ANSWER_LABEL
C#C[C@]1(O)CC[C@H]2[C@@H]3CCC4=C/C(=N/NC(=O)c5cccc6cc7ccccc7nc56)CC[C@@H]4[C@H]3CC[C@@]21CC	0 (no)
Fc1cccc(C2SCc3nc4ccccc4n32)c1F (configuration not stated)	0 (no)
COc1cc(/C=C2\C(=O)N(c3cc(Cl)ccc3Cl)C(c3ccccc3)S2(=O)=O)cc(OC)c1OC (configuration not stated)	0 (no)
COc1cc2c3c(c1OC)-c1ccccc1C(C(O)c1ccccc1)C3N(C)CC2 (configuration not stated)	0 (no)
CCC(C)[C@@H]1NC(=O)[C@@H]2CCCN2C(=O)C(CC(O)CO)OC(=O)CCNC(=O)[C@H](C)N(C)C(=O)[C@H](C(C)C)N(C)C1=O (some centres not stated) (cyclo([Ile(3ξ)][NMeV][NMeA][βAla][X24]P))	0 (no)
N=C(N)NS(=O)(=O)c1ccc(Nc2c3ccccc3nc3c(C(=O)N4CCN(CCO)CC4)cccc23)cc1	0 (no)
Nc1nc(S)nc2snnc12	0 (no)
COC(=O)/C=C1/OC(c2ccccc2)=C(Br)C1=O	0 (no)
CCN(CC)C(=S)SS(=O)(=O)c1ccc(NC(C)=O)cc1	0 (no)
CCN(CC)CCOCCn1c2c(c3ccccc31)CCCC2	0 (no)
N=C(N)c1ccc(-c2ccc(-c3ccc(C(=N)N)cc3)o2)cc1 [FURAMIDINE HYDROCHLORIDE]	0 (no)
CCn1c2ccccc2c2ccc(C3C(C(=O)OC)=C(C)NC(C)=C3C(=O)OC)cc21	0 (no)
COC(=O)/C(C#N)=C1\NN=NN1CCCc1ccccc1	0 (no)
CCOC(=O)c1c(Nc2ccccc2)sc2cccnc12	0 (no)
COc1cc(C2c3cc4c(cc3OC(NCCO)C2C)OCO4)cc(OC)c1O (configuration not stated)	0 (no)
COc1ccc(NC(=O)CC(=O)N2N=C(C)C(/N=N/c3ccc(C(=O)O)cc3)C2=O)cc1 (configuration not stated)	0 (no)
CN1CCN(CCCN)CC1	0 (no)
O=C(N[C@@H](c1ccccc1)[C@@H](O)C(=O)OCc1ccc2c(c1)OCO2)c1ccccc1	0 (no)
CCOC(=O)c1ccc(C(=O)C(C(C)=O)C(=O)OC(C)(C)C)n1C (configuration not stated)	0 (no)
CCOC(=O)C1c2[nH]c3ccccc3c2CCN1C(=O)c1ccc(OC)o1 (configuration not stated)	0 (no)
CN(C)CCNC1=Nc2ccccc2C(=S)N2CSCC12 (configuration not stated)	0 (no)
CC(C)OCC(O)COc1ccc2ccc(=O)oc2c1 (configuration not stated)	0 (no)
CCOC(=O)c1ccc2c(c1)Cc1cc([N+](=O)[O-])ccc1-2	0 (no)
COc1ccc(C(C#N)NCCCCCCNC(C#N)c2ccc(OC)cc2)cc1 (configuration not stated)	0 (no)
Cc1ccccc1C(=O)c1c(O)c2c(c(O)c1Br)CCCC2	0 (no)
O=C1OC(c2ccccc2)=N/C1=C/c1cccs1	0 (no)
COc1c(O)cc(O)c2c(=O)cc(-c3ccccc3)oc12	0 (no)
Cc1cccc(C)c1NC(=O)C(=O)CC(=O)/C=C/c1ccccc1	0 (no)
CN(C)CCCN1c2ccc([N+](=O)[O-])cc2CCc2cc([N+](=O)[O-])ccc21	0 (no)
COC(OC)C1(c2ccccc2)Oc2ccccc2C1=O (configuration not stated)	0 (no)
Cc1cccc(C(C)C)c1NC(=O)CC1C(=O)Nc2ccccc2S1(=O)=O (configuration not stated)	0 (no)
CC1OC=CC(=O)C1O (configuration not stated)	0 (no)
CCCC/C=C1\CCC(CN2CCOCC2)C1=O (configuration not stated)	0 (no)
O=C(CN1CCCCC1)c1ccc2c(c1)Sc1ccccc1O2	0 (no)
CN(CCc1ccccn1)C(=S)N/N=C(\c1ccccc1)c1ccccn1	1 (yes)
C#Cc1c(C)c(/C=C/C(C)=C/C=C/C(C)=C/C(=O)OC)n(C)c1C	0 (no)
Cc1ccc(S(=O)(=O)c2c(N)c3nccn3c3nc4ccccc4nc23)cc1	0 (no)
COc1cccc2cc(C(=O)NC34CC5CC(CC(C5)C3)C4)c(=N)oc12	0 (no)
CC(C)C[C@H](NC(=O)[C@H](CCc1ccccc1)NC(=O)c1ccc2ccccc2n1)B(O)O	1 (yes)
O=C1NC(N2CCCCC2)=N/C1=C\c1ccccc1	0 (no)
C=C(C)C1CC=C(C)[C@](O)(C2(O)C[C@H](C(=C)C)CC=C2C)C1 (some centres not stated)	0 (no)
CC1=C[P+](c2ccccc2)(c2ccccc2)c2ccccc2O1	0 (no)

---

# System: UACC-257
# PROCEDURE_DETAILS: NCI tumour cell line growth inhibition, 48 h
Calls of active or inactive are those of the source. No stated cut-off is given here; in the data, active = GI50 up to about 1.1 µM and inactive = higher.
MEASURED_METRIC: GI50

> print(dat)
                                    molecule  measured.metric             measured
 1  O=C1c2ccccc2C(=O)N1CCSCC(CO)SCCN1C(=O)c2ccccc2C1=O (stereo not given)             GI50  > 100 µM (inactive)
 2  CCCCCCCCOCC(O)COC(C)C (stereo not given)             GI50   27.9 µM (inactive)
 3  C=C1CCCC2[C@](C)(CC3=C(Cl)C(=O)C=C(OC)C3=O)C(C)CC[C@]12C (stereo not given in full)             GI50   5.89 µM (inactive)
 4  CC(C)(C)/N=c1/n(C(C)(C)C)oc(=O)n1-c1ccccc1             GI50   > 50 µM (inactive)
 5  Cc1cccc(C(C)(C)C)c1NC(=O)CCc1nnc(S)[nH]1             GI50  > 100 µM (inactive)
 6  CCOC(=O)c1ccc2c(c1)Cc1cc([N+](=O)[O-])ccc1-2             GI50   48.1 µM (inactive)
 7  COc1ccc(C(=O)C(c2ccc(OC)cc2)C2C(=O)Oc3ccccc32)cc1 (stereo not given)             GI50   > 10 µM (inactive)
 8         CCOC(=O)/C=C/c1c[nH]c(=O)[nH]c1=O             GI50   > 75 µM (inactive)
 9  O=C(O)c1c2c(cc3c(=O)cc(-c4ccccc4)oc13)CCCC2             GI50  > 100 µM (inactive)
10  C#C[C@]1(O)CC[C@H]2[C@@H]3CCC4=C/C(=N/NC(=O)c5cccc6cc7ccccc7nc56)CC[C@@H]4[C@H]3CC[C@@]21CC             GI50  > 100 µM (inactive)
